# Measured target: T1, Human OX40 expressed on transfected Jurkat or CHO cells (human, UniProt P43489 29-277)
# T1 construct: also called human OX40/Jurkat; human OX40/CHO
# T1 sequence: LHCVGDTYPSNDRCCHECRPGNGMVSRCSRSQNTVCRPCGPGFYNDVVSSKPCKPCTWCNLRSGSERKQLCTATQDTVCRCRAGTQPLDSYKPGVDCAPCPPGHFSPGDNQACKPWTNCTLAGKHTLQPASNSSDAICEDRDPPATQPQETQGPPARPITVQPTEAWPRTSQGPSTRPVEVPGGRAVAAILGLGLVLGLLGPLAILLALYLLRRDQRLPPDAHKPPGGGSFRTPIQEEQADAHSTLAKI
# Protocol text: flow cytometry on human OX40-expressing Jurkat cells, Geo MFI
Readout kind: pEC50
Scale: negative log10 of molar concentration, which is what pEC50 denotes.

Worked cases, answers included:
1B3 tetravalent anti-OX40 antibody (1B3 VHH with GS linker on CH1 and on CL of human IgG1) (antibody, V domains shown, Four-chain format; The heavy and light variable regions of human IgG1 are replaced by the VHH) V domain 1: EVQLVESGGGLVQPGGSLRLSCAASGPLGMPSIAWFRQAPGKGLEFVSGIAWSTGDTYYADSVKGRFTISRDNSKNTLYLQMNSLRAEDTAVYYCAADTQVHYMGRHDIRDREEYDYWGQGTLVTVSS V domain 2: EVQLVESGGGLVQPGGSLRLSCAASGPLGMPSIAWFRQAPGKGLEFVSGIAWSTGDTYYADSVKGRFTISRDNSKNTLYLQMNSLRAEDTAVYYCAADTQVHYMGRHDIRDREEYDYWGQGTLVTVSS = 9.80
2B7 VHH-Fc bivalent antibody (antibody, human IgG1, V domains shown, also called 2B7-bivalent) VH: EVQLVESGGGLVQPGGSLRLSCAASGPLGAPSIAWFRQAPGKGLEFVSGIAWSTGDTYYADSVKGRFTISRDNSKNTLYLQMNSLRAEDTAVYYCAADTSVHYMGRHDIRDYEEYDYWGQGTLVTVSS = 8.01
1B3 VHH-Fc bivalent antibody (antibody, human IgG1, V domains shown, also called 1B3-bivalent) VH: EVQLVESGGGLVQPGGSLRLSCAASGPLGMPSIAWFRQAPGKGLEFVSGIAWSTGDTYYADSVKGRFTISRDNSKNTLYLQMNSLRAEDTAVYYCAADTQVHYMGRHDIRDREEYDYWGQGTLVTVSS = 8.37

Could you now consider this next binder?
Noted for 2B7 tetravalent anti-OX40 antibody (2B7 VHH with GS linker on CH1 and on CL of human IgG1) (antibody, V domains shown) V domain 1: EVQLVESGGGLVQPGGSLRLSCAASGPLGAPSIAWFRQAPGKGLEFVSGIAWSTGDTYYADSVKGRFTISRDNSKNTLYLQMNSLRAEDTAVYYCAADTSVHYMGRHDIRDYEEYDYWGQGTLVTVSS V domain 2: EVQLVESGGGLVQPGGSLRLSCAASGPLGAPSIAWFRQAPGKGLEFVSGIAWSTGDTYYADSVKGRFTISRDNSKNTLYLQMNSLRAEDTAVYYCAADTSVHYMGRHDIRDYEEYDYWGQGTLVTVSS : its pEC50 reads 9.70
